# experimental-setup: in n-octanol, 288.15 K
experimental-endpoint: solubility (mole fraction)
One number for each entry.

Sample N[C@H](Cc1c[nH]c2ccccc12)C(=O)O — what was its solubility (mole fraction)?
1.53e-05

###

# experimental-setup: in ethyl acetate, 318.15 K
experimental-endpoint: solubility (mole fraction)
Numbers only.

Sample N[C@H](Cc1c[nH]c2ccccc12)C(=O)O — what was its solubility (mole fraction)?
0.00115

###

# experimental-setup: in n-octanol, 303.15 K
experimental-endpoint: solubility (mole fraction)
One number for each entry.

Sample N[C@H](Cc1c[nH]c2ccccc12)C(=O)O — what was its solubility (mole fraction)?
2.8e-05

###

# experimental-setup: in n-propanol, 308.15 K
experimental-endpoint: solubility (mole fraction)
Give bare numbers.

Sample N[C@H](Cc1c[nH]c2ccccc12)C(=O)O — what was its solubility (mole fraction)?
0.000127
